Assayed system: Inosine-5'-monophosphate dehydrogenase (Pseudomonas aeruginosa (strain ATCC 15692 / DSM 22644 / CIP 104116 / JCM14847 / LMG 12228 / 1C / PRS 101 / PAO1))
Experiment: Inhibition of Pseudomonas aeruginosa IMPDH using IMP as substrate in the presence of NAD+ incubated for 70 secs
Stated conditions: read-out: IC50
Field: label. Allowed values: Fulfilled (IC50 < 7 µM) or Not fulfilled (IC50 >= 7 µM).

Determine if Cc1cc2c(C(C)C)c(O)c(O)c(C=O)c2c(O)c1-c1c(C)cc2c(C(C)C)c(O)c(O)c(C=O)c2c1O shows IC50 strictly lower than 7 µM. Fulfilled

Determine if CCc1oc2ccccc2c1C(=O)c1cc(Br)c(O)c(Br)c1 shows IC50 strictly lower than 7 µM. Not fulfilled

Determine if N#CC1=C(N)Oc2[nH]c(=O)[nH]c(=O)c2C1c1ccc(Cl)cc1 (stereo unspecified) shows IC50 strictly lower than 7 µM. Fulfilled

Determine if COc1ccc(Br)cc1-c1cc(C(=O)O)nc2[nH]nc(-c3ccc(C)cc3)c12 shows IC50 strictly lower than 7 µM. Not fulfilled

Determine if CC(=O)N1CCOc2cc(S(=O)(=O)Nc3ccc(F)c(Cl)c3)ccc21 shows IC50 strictly lower than 7 µM. Not fulfilled

Determine if CCOc1ccc(-c2cc(C(=O)O)nc3[nH]nc(-c4ccc(Cl)cc4)c23)cc1 shows IC50 strictly lower than 7 µM. Not fulfilled

Determine if COc1ccc(-c2cc(C(=O)O)nc3[nH]nc(-c4ccc(C)cc4)c23)cc1Br shows IC50 strictly lower than 7 µM. Not fulfilled

* * *

Assayed system: Inosine-5'-monophosphate dehydrogenase (Pseudomonas aeruginosa (strain ATCC 15692 / DSM 22644 / CIP 104116 / JCM14847 / LMG 12228 / 1C / PRS 101 / PAO1), UniProt Q9HXM5)
Sequence (Q9HXM5 whole entry): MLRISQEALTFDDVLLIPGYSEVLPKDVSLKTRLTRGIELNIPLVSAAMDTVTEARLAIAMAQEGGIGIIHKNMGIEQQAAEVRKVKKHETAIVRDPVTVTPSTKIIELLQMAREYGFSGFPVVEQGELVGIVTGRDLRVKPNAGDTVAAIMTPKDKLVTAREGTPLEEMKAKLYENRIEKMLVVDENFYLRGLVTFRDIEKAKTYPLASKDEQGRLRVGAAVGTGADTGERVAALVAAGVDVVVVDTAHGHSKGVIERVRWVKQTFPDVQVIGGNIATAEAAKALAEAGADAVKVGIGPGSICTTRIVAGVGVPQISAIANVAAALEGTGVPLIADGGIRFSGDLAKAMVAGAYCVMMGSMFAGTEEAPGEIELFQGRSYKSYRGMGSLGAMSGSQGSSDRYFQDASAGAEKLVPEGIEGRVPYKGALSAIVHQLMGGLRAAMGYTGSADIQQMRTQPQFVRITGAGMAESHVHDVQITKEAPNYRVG
Experiment: Inhibition of Pseudomonas aeruginosa IMPDH using IMP as substrate in the presence of NAD+ incubated for 70 secs
Stated conditions: read-out: IC50
pIC50: −log10 of the molar value.
Decide using pIC50: a value greater than or equal to 5 is yes, a smaller one is no.

1) O=C(CCS(=O)(=O)c1ccc2c(c1)SCC(=O)N2)NCCCc1ccccc1 ... yes

Given the entry CC(=O)Nc1ccc(C2C3=C(Nc4c2c(=O)[nH]c(=O)n4Cc2ccccc2)c2ccccc2C3=O)cc1 (centres undefined) , answer whether its pIC50 meets or surpasses 5. yes

Given the entry N#CC1=C(N)Oc2[nH]c(=O)[nH]c(=O)c2C1c1ccc([N+](=O)[O-])s1 (centres undefined) , answer whether its pIC50 meets or surpasses 5. yes

Given the entry CC(=O)Nc1ccc(-c2cc(C(=O)O)nc3[nH]nc(-c4ccc(Cl)cc4)c23)cc1 , answer whether its pIC50 meets or surpasses 5. no

Given the entry CC(=O)Nc1ccc(-c2cc(C(=O)O)nc3[nH]nc(-c4ccc(C)cc4)c23)cc1 , answer whether its pIC50 meets or surpasses 5. no

Given the entry N#CC1=C(N)Oc2[nH]c(=O)[nH]c(=O)c2C1c1ccc([N+](=O)[O-])cc1 (centres undefined) , answer whether its pIC50 meets or surpasses 5. yes

Given the entry COc1ccccc1-c1noc(CCC(=O)Nc2ccc(Cl)cc2)n1 , answer whether its pIC50 meets or surpasses 5. yes

Given the entry COc1cc(-c2ccc(/N=N/c3ccc4c(S(=O)(=O)O)cc(S(=O)(=O)O)c(N)c4c3O)c(OC)c2)ccc1/N=N/c1ccc2c(S(=O)(=O)O)cc(S(=O)(=O)O)c(N)c2c1O [CHICAGO SKY BLUE SODIUM] , answer whether its pIC50 meets or surpasses 5. yes

Every entry's value here was drawn from ChEMBL document CHEMBL4433199.
